Data origin, for the record: PubChem BioAssay (NCATS)

- procedureDetails: qHTS of pediatric cancer cell lines to identify multiple opportunities for drug repurposing: Confirmatory screen for SK-N-MC cells (AID 1347111);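 also: cells exposed to compound for 48 h before the readout; nearly all actives have a fitted effect of over 70% in size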
- conditionSummary: SK-N-MC cell viability; series mostly up to 45.9 µM
Results filed as inconclusive are left out. The source made the active and inactive calls. Calls follow the shape of the dose curve; as a rule, active = well fitted cell-killing curve with a large enough effect; inconclusive = small, poorly fitted or top-dose-only effect; inactive = no such curve, though single readings can be large or run the other way.
The reply should be one of these categories: YES (active), NO (inactive)

Reference set (8 entries):
INSERT INTO results (compound, grouplabel) VALUES
  ('C[C@]12C=CC(=O)C=C1[C@@H](F)C[C@@H]1[C@@H]2[C@@H](O)C[C@@]2(C)[C@H]1CC[C@]2(O)C(=O)CO', 'NO'),
  ('O=C(CCCN1CCC(O)(c2ccc(Br)cc2)CC1)c1ccc(F)cc1', 'YES'),
  ('CCC(C(=O)OCCN(CC)CC)c1ccccc1 (centres undefined)', 'YES'),
  ('CN(C)/N=N/c1nc[nH]c1C(N)=O', 'YES'),
  ('CCCCC(CC)CN=C(N)NC(N)=NCCCCCCN=C(N)NC(N)=NCC(CC)CCCC (centres undefined)', 'YES'),
  ('COc1cc(C=C2CCC/C(=C\c3ccc(O)c(OC)c3)C2=O)ccc1O', 'YES'),
  ('CC(=O)O[C@]1(C(C)=O)CC[C@H]2[C@@H]3C[C@H](C)C4=CC(=O)CC[C@]4(C)[C@H]3CC[C@@]21C', 'YES'),
  ('CC(=O)Oc1ccc2c(c1)CC[C@@H]1[C@@H]2CC[C@]2(C)[C@@H](O)CC[C@@H]12', 'YES');

Input line: For this compound, state the assay outcome: `CN(C)C(=S)SC(=S)N(C)C`
Output line: YES

Input line: Similarly, `C[C@H]1C[C@H]2[C@@H]3CCC4=CC(=O)C=C[C@]4(C)[C@@]3(Cl)[C@@H](O)C[C@]2(C)[C@@]1(O)C(=O)CO` ?
Output line: NO

###

- systemTested: Protein phosphatase 1D (Homo sapiens)
- procedureDetails: RapidFire Mass Spectrometry qHTS Assay for Modulators of WT P53-Induced Phosphatase 1 (WIP1) (AID 1347424);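 also: amount of dephosphorylated VEPPL-S-QETFS peptide product formed by WIP1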
- conditionSummary: WIP1 dephosphorylation of phosphopeptide, RapidFire MS; series mostly up to 63 µM
Results filed as inconclusive are left out. Active and inactive are the calls of the source. Calls come from the whole dose curve; as a rule, active = well fitted inhibition curve with a large enough effect; inconclusive = small, poorly fitted or top-dose-only effect; inactive = no such curve, though single readings can be large or run the other way.
The reply should be one of these categories: active, inactive

Reference set (3 entries):
INSERT INTO results (compound, grouplabel) VALUES
  ('C=C1C[C@H]2[C@@H]3C=C(C)C4=CC(=O)CC[C@]4(C)[C@H]3CC[C@]2(C)[C@@]1(OC(C)=O)C(C)=O', 'inactive'),
  ('NC(CS)C(=O)O (stereo not given)', 'inactive'),
  ('CO/N=C1\CN(c2nc3c(cc2F)c(=O)c(C(=O)O)cn3C2CC2)CC1CN (stereo not given)', 'inactive');

Input line: For this compound, state the assay outcome: `CCCSS/C(CCO)=C(\C)N(C=O)Cc1cnc(C)nc1N`
Output line: inactive

Input line: Similarly, `CCCCc1nc(Cl)c(CO)n1Cc1ccc(-c2ccccc2-c2nn[nH]n2)cc1` ?
Output line: inactive

Input line: Similarly, `Nc1ccc(C(=O)O)cc1` ?
Output line: inactive

Input line: Similarly, `CCCC(=O)O[C@]1(C(=O)CO)CC[C@H]2[C@@H]3CCC4=CC(=O)CC[C@]4(C)[C@H]3[C@@H](O)C[C@@]21C` ?
Output line: inactive

Input line: Similarly, `CC/C(=C(/CC)c1ccc(O)cc1)c1ccc(O)cc1` ?
Output line: active

Input line: Similarly, `OC[C@@H](O)[C@@H](O[C@@H]1O[C@H](CO)[C@H](O)[C@H](O)[C@H]1O)[C@H](O)[C@@H](O)CO` ?
Output line: inactive

Input line: Similarly, CCC(C(=O)OCCN(CC)CC)c1ccccc1 (stereo not given) ?
Output line: inactive

###

- Tested on: PC15
- procedureDetails: qHTS profiling for inhibitors of Plasmodium falciparum proliferation (AID 504749); also: nearly all actives have a fitted effect of over 60% in size
- conditionSummary: P. falciparum in erythrocytes, SYBR Green DNA, 72 h; series mostly up to 28.7 µM
Results filed as inconclusive are left out. The source made the active and inactive calls. The call rests on the fitted dose curve; in most records, active means well fitted inhibition curve with a large enough effect; inconclusive means small, poorly fitted or top-dose-only effect; inactive means flat fitted curve, though single readings scatter.
The reply should be one of these categories: active, inactive

Reference set (6 entries):
INSERT INTO results (compound, grouplabel) VALUES
  ('CC(O)C(=O)O (stereo unspecified)', 'inactive'),
  ('CCOc1ccc(Cc2nccc3cc(OCC)c(OCC)cc23)cc1OCC', 'inactive'),
  ('Cc1c(F)c(N2CCNC(C)C2)cc2c1c(=O)c(C(=O)O)cn2C1CC1 (stereo unspecified)', 'inactive'),
  ('COc1cc2c(cc1OC)C(C(C(=O)N(CCc1ccc(OC)c(OC)c1OC)CCc1ccc(OC)c(OC)c1OC)c1ccccc1)=NCC2 (stereo unspecified)', 'active'),
  ('CC(=O)N(O)CCCCCNC(=O)CCC(=O)N(O)CCCCCNC(=O)CCC(=O)N(O)CCCCCN', 'inactive'),
  ('NC(=O)C(=O)N/N=C/c1ccc([N+](=O)[O-])o1', 'inactive');

Input line: For this compound, state the assay outcome: `CCN1CCC[C@H]1CNC(=O)c1c(OC)ccc(Br)c1OC`
Output line: inactive

Input line: Similarly, `CCN(CC)C(=O)N1CCN(C)CC1` ?
Output line: inactive

Input line: Similarly, `CCCCCC=CCC=CCCCCCCCC(=O)OCC` ?
Output line: inactive

Input line: Similarly, `COC1=CC(=O)C[C@@H](C)[C@]12Oc1c(Cl)c(OC)cc(OC)c1C2=O` ?
Output line: inactive

Input line: Similarly, `Cc1ccnc(NS(=O)(=O)c2ccc(N)cc2)n1` ?
Output line: inactive

###

- systemTested: Thyrotropin-releasing hormone receptor (Homo sapiens)
- procedureDetails: qHTS for Small Molecule Agonists and Allosteric Enhancers of Human TRH Receptor: Validation Screen for Agonists (AID 493127);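 also: intracellular calcium rise by fluo-8 fluorescence before TRH EC20 addition; 0% is about no effect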
- conditionSummary: TRH receptor agonist cell assay; at 2 µM; hits give high values
Listing of entries alongside the reported activation.
Only the number, expressed in %, is required.

Input line: So what's the measured activation for this one? `O=C(O)c1cc2cc(Cc3cccnc3)ccc2o1`
Output line: 1.38

Input line: Similarly, `C[C@@H]1C(=O)NC2=Nc3cccc(Cl)c3CN21` ?
Output line: 1.06

Input line: Similarly, `Nc1cc(Cl)c(NC2=NCCN2)c(Cl)c1` ?
Output line: 1.12

Input line: Similarly, `COC(=O)[C@H]1[C@H]2C[C@H]3c4[nH]c5ccccc5c4CCN3C[C@H]2CC[C@@H]1O` ?
Output line: 1.44

Input line: Similarly, `C[N+]1(CCCCC[N+]2(C)CCCC2)CCCC1` ?
Output line: 0.75

###

- procedureDetails: qHTS of pediatric cancer cell lines to identify multiple opportunities for drug repurposing: Primary screen for Rh18 cells (AID 1347102); also: nearly all actives have a fitted effect of over 65% in size
- conditionSummary: Rh18 rhabdomyosarcoma viability, CellTiter-Glo luminescence, 48 h; series mostly up to 46 µM
Results filed as inconclusive are left out. Calls of active or inactive are those of the source. Calls follow the shape of the dose curve; as a rule, active = well fitted cell-killing curve with a large enough effect; inconclusive = small, poorly fitted or top-dose-only effect; inactive = flat fitted curve, though single readings scatter.
The reply should be one of these categories: active, inactive

Reference set (5 entries):
INSERT INTO results (molecule, grouplabel) VALUES
  ('CC(O)(P(=O)(O)O)P(=O)(O)O', 'inactive'),
  ('CCN1CCCC1=O', 'inactive'),
  ('Nc1nc2ncc(CNc3ccc(C(=O)N[C@@H](CCC(=O)O)C(=O)O)cc3)nc2c(=O)[nH]1', 'inactive'),
  ('CCCCCCCCCCCCCCCC[N+](C)(C)CCN(Cc1ccc(OC)cc1)c1ncccn1', 'active'),
  ('CC(C)(C(=O)c1cccnc1)c1cccnc1', 'inactive');

Input line: For this molecule, state the assay outcome: `NC(=O)c1cc[n+](CC2=C(C(=O)[O-])N3C(=O)[C@@H](NC(=O)Cc4cccs4)[C@H]3SC2)cc1`
Output line: inactive

Input line: Similarly, `CN1CCN(CCCN2c3ccccc3Sc3ccc(S(=O)(=O)N(C)C)cc32)CC1` ?
Output line: active

Input line: Similarly, `CCCC(=O)O[C@]1(C(=O)CO)CC[C@H]2[C@@H]3CCC4=CC(=O)CC[C@]4(C)[C@H]3[C@@H](O)C[C@@]21C` ?
Output line: inactive

Input line: Similarly, `CC(C)=CCC1C(=O)N(c2ccccc2)N(c2ccccc2)C1=O` ?
Output line: inactive

###

- Test system: CP201
- procedureDetails: qHTS profiling for inhibitors of Plasmodium falciparum proliferation (AID 504749); also: nearly all actives have a fitted effect of over 60% in size; also: potency is read from the fitted curve at half-maximal effect
- conditionSummary: P. falciparum in erythrocytes, SYBR Green DNA, 72 h; series mostly up to 28.7 µM
Records with an inconclusive call do not appear. The source made the active and inactive calls. Calls follow the shape of the dose curve; as a rule, active = well fitted inhibition curve with a large enough effect; inconclusive = small, poorly fitted or top-dose-only effect; inactive = flat fitted curve, though single readings scatter.
reportedProperty: Potency

Sample records with Potency:
INSERT INTO measurements (molecule, reportedproperty, result) VALUES
  ('CC1=C(C(=O)OC(C)C)C(c2cccc([N+](=O)[O-])c2)C(C(=O)OC2CN(C(c3ccccc3)c3ccccc3)C2)=C(N)N1 (centres undefined)', 'Potency', '7.57 µM (active)'),
  ('CC(=O)N(O)CCCCCNC(=O)CCC(=O)N(O)CCCCCNC(=O)CCC(=O)N(O)CCCCCN', 'Potency', 'inactive'),
  ('COc1cccc2c1C(=O)c1c(O)c3c(c(O)c1C2=O)C[C@@](O)(C(C)=O)C[C@@H]3O[C@H]1C[C@H](N)[C@H](O)[C@H](C)O1', 'Potency', '9.53 µM (active)'),
  ('CCN(CC)C(=O)N1CCN(C)CC1', 'Potency', 'inactive');

In the following, a different molecule is considered.
Input line: So what's the measured Potency for this one? `C[C@@H]1C[C@H]2[C@@H]3CCC4=CC(=O)C=C[C@]4(C)[C@@]3(F)[C@@H](O)C[C@]2(C)[C@H]1C(=O)CO`
Output line: inactive
